# Tested on: Candida albicans
# CONDITION_SET: 32 ug/mL
# Description: Antifungal activity against Candida albicans ATCC 90028 (CO-ADD:FG_001); MIC in YNB media using NBS plates, by OD630
Entries with a potency or affinity are not part of this list.
TEST_READOUT: Inhibition (%)

[[record]]
item_smiles = "CC(=O)c1cc(C(C)=O)cc(C(C)=O)c1"
assay_value = 2.92

[[record]]
item_smiles = "COC(=O)c1ccc(S)cc1"
assay_value = 2.97

[[record]]
item_smiles = "c1ccc2nc3c4cccnc4c4ncccc4c3nc2c1"
assay_value = 9.1

[[record]]
item_smiles = "CC(=NN)c1cc(/C(C)=N/N)cc(/C(C)=N/N)c1"
assay_value = 5.62

